B1: TRAF3IP2 (parent)
chain: KEHVPTWLQNTHVYSWPKNKKNIL

Variants of: B1
Method Summary: protein stability index of a GFP-peptide fusion (GPS, HEK-293T) (PSI 1-6); higher = more stable;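 also: lentivirally expressed fusions sorted by FACS into six bins by GFP to DsRed ratio, PSI derived from sequencing read proportions per bin multiplied by bin number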
Run Conditions: c terminus: a fixed tail appended
Exercise: for every item that follows, state its recorded protein stability index.

H12E : 3.38
I23D : 3.75

Go through the items and report each one's protein stability index.
1. N10Y
2. K21C
3. W16E
4. N22D

# output
1: 2.6; 2: 2.3; 3: 3.77; 4: 2.04

Go through the items and report each one's protein stability index.
1. P5V
2. T6Q
3. H3C
4. N22K
5. P17V
6. E2G

# output
[2.24, 2.51, 2.42, 2.9, 1.98, 1.93]

// data source = the supplement of paper PMC10567573
